Target: UniProtKB P16083
Sequence (P16083 whole entry): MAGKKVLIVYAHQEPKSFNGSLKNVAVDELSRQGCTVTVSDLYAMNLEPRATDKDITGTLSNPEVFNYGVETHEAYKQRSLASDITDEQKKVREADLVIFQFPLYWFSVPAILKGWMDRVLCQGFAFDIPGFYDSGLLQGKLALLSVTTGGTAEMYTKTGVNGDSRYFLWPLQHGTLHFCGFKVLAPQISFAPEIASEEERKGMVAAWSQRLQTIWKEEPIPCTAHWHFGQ
Assay: Inhibition of human recombinant NQO2
The class of a record is decided solely by its measured IC50; consult low band (below 4 µM), middle band (4 µM to below 6 µM), high band (6 µM or more)

COc1cc(/C=C/c2ccc(OC)c(O)c2)cc(OC)c1; high band
Cc1cc(NCCCCCCNc2cc(C)nc3ccc(N)cc23)c2cc(N)ccc2n1; low band
CC(/C=C/C(=O)c1sc(-n2nc(-c3ccccc3)cc2-c2ccccc2)nc1C)=C\c1ccccc1; low band
C(=C\Nc1ccc(-c2ccccc2)cc1)/C=N/c1ccc(-c2ccccc2)cc1; high band
Cn1cc/c(=N\N=c2/ccn(C)c3ccccc23)c2ccccc21; high band
N=C(N)c1ccc(/N=N/c2cc(/N=N/c3ccccc3)ccc2O)cc1; low band

GET /class?item= Cc1nc(-n2nc(-c3ccccc3)cc2-c2ccccc2)sc1C(=O)/C=C/c1ccc(Cl)c(Cl)c1
middle band

Quick check: band for CN(C)c1ccc(/C=c2\c3cc([N+](=O)[O-])ccc3n3c2cc(-c2ccccc2)[n+]3C)cc1
middle band

Pick a category. Item: COc1cc2cc(-c3cc(OC)c(OC)c(OC)c3)c3c(c2cc1OC)CNC3
low band

Value source: ChEMBL document CHEMBL1287791
